test system: Staphylococcus aureus; test: Antimicrobial activity against Staphylococcus aureus ATCC 6538 by MTT assay; format: functional
Listing of recorded MIC by entry.

{"molecule": "CC(=O)N1N=C(c2ccccc2)CC1c1ccccc1Cl (stereo not drawn)", "assayed-target": "Staphylococcus aureus", "MIC": "> 50 µg/mL"}
{"molecule": "COc1ccc(C2=NN(C(C)=O)C(c3ccccc3)C2)cc1 (stereo not drawn)", "assayed-target": "Staphylococcus aureus", "MIC": "> 50 µg/mL"}
{"molecule": "CC(=O)N1N=C(c2ccc(Cl)c(Cl)c2)CC1c1ccccc1 (stereo not drawn)", "assayed-target": "Staphylococcus aureus", "MIC": "> 50 µg/mL"}
